Measured pEC50 accompanies every entry in the list below.
Study System: T1, recombinant human Aggrecan G1-IGD-G2 (human, UniProt P16112 20-676)
T1 construct: Only the G1-IGD-G2 region was used (R&D Systems 1220-PG is named for the immunogen); also called Hu G1-IGD-G2
Procedure Summary: ELISA on recombinant G1-IGD-G2
In simple prose, pEC50 is minus the logarithm base ten of a concentration in moles per litre.

| Binder | pEC50 |
| --- | --- |
| C01010060 (606A07-ALB26) (VHH, not shown: small tags and cut ends) VHH: DVQLVESGGGLVQPGGSLRLSCVASGRTFSIYGMGWFRQAPGKEREFVAAINGGSRTYYADSVKGRFTISRDNSKNTVYLQMNSLRPEDTAVYYCAADRSGYGTSLDWWYDYWGQGTLVTVSS | 7.92 |
| C01010054 (114F08-ALB26) (VHH, not shown: small tags and cut ends, also called C010100054) VHH: EVQLVESGGGLVQAGGSLRLSCAASGSTFIINVVRWYRRTPGKQRELVATISSGGNANYVDSVRGRFSISRDGAKNAVDLQMNGLKPEDTAVYYCNVPTTHYGGVYYGPYWGQGTQVTVSS | 8.22 |

Request: Returns the measured pEC50 for the input binder. Input: C01010113 (ALB26-606A07-606A07) (VHH, not shown: small tags and cut ends, also called AL326-606A07-606A07) VHH 1: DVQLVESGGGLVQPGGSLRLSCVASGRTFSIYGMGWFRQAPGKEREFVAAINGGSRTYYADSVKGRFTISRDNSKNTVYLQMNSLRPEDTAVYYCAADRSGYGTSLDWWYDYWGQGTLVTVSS VHH 2: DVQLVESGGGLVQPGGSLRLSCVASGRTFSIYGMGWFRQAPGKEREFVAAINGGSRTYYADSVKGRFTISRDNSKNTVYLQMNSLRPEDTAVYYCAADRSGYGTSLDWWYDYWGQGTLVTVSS
Response: 9.17
